The following are reported pIC50 results, target or system Poly [ADP-ribose] polymerase 1 (Homo sapiens).
pIC50: −log10 of the molar value.

{"mol": "CC(C)C[C@@H](C(=O)OCc1ccccc1)N1Cc2ccccc2NC1=O", "pIC50": "< 4.52"}

Name the recorded pIC50 of "CC(C)C[C@H]1C(=O)N(Cc2ccc(C(F)(F)F)cc2)c2ccccc2C(=O)N1Cc1ccc(C(F)(F)F)cc1" , assay system Poly [ADP-ribose] polymerase 1 (Homo sapiens).
< 4.52

* * *

target: human recombinant CB1R (Homo sapiens, UniProt P21554); assay: Competition binding assay, displacement of [3H]-CP-55,940; details: displacement of [3H]-CP-55,940, HEK-293 membranes; read-out: EC50 or IC50, cannabinoid receptor 1
Sequence (P21554 whole entry): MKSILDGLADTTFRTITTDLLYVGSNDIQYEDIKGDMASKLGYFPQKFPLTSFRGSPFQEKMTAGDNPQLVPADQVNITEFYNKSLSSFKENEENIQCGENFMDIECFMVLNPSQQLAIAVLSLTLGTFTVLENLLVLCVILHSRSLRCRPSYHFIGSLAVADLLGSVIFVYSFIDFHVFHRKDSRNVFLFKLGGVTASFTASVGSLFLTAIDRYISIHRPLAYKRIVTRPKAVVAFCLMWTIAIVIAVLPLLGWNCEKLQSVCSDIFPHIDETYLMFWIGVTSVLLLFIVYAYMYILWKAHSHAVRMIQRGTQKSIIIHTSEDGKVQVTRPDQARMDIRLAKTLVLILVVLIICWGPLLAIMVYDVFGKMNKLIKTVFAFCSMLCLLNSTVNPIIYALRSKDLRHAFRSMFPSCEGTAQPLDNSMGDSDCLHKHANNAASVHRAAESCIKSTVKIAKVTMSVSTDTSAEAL
pIC50: −log10 of the molar value.
pIC50 overview

{"mol": "CC(C)C[C@@H](C(=O)OCc1ccccc1)N1Cc2ccccc2NC1=O", "measurement-target": "human recombinant CB1R (Homo sapiens, UniProt P21554)", "pIC50": "< 4.52"}

Return pIC50 for the following molecule: "CC(C)C[C@H]1C(=O)N(Cc2ccc(C(F)(F)F)cc2)c2ccccc2C(=O)N1Cc1ccc(C(F)(F)F)cc1"
< 4.52

* * *

Biological target: A1 Human Adenosine GPCR (Homo sapiens, UniProt P30542)
Construct: Eurofins (contract assay)
Sequence (P30542 1-326): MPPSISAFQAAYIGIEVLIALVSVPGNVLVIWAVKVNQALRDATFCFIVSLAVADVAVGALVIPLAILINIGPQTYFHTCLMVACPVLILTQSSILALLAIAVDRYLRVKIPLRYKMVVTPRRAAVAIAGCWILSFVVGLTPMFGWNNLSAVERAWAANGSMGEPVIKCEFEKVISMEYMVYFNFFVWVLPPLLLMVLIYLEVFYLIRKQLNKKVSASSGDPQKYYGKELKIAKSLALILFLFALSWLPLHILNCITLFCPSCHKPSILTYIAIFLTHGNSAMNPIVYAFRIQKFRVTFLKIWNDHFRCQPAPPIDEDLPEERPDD
Assay: Binding Agonist Radioligand LeadHunter Assay
Conditions: Eurofins, read-out: EC50 or IC50, A1 Human Adenosine GPCR, agonist radioligand
metric: IC50

{"mol": "CC(C)C[C@@H](C(=O)OCc1ccccc1)N1Cc2ccccc2NC1=O", "metric": "IC50", "obs-value": "≥ 30 µM"}

Consider the record given below.
Return IC50 for the following compound: "CC(C)C[C@H]1C(=O)N(Cc2ccc(C(F)(F)F)cc2)c2ccccc2C(=O)N1Cc1ccc(C(F)(F)F)cc1"
≥ 30 µM

* * *

pIC50 overview
biological target: Vascular Endothelial Growth Factor Receptor (VEGFR-2)/KDR (Homo sapiens, UniProt P35968); construct: Eurofins (contract assay); assay: Kinase Enzymatic Radiometric [10 uM ATP] KinaseProfiler LeadHunter Assay; settings: Eurofins, read-out: EC50 or IC50, VEGFR-2/KDR
Sequence (P35968 20-1356): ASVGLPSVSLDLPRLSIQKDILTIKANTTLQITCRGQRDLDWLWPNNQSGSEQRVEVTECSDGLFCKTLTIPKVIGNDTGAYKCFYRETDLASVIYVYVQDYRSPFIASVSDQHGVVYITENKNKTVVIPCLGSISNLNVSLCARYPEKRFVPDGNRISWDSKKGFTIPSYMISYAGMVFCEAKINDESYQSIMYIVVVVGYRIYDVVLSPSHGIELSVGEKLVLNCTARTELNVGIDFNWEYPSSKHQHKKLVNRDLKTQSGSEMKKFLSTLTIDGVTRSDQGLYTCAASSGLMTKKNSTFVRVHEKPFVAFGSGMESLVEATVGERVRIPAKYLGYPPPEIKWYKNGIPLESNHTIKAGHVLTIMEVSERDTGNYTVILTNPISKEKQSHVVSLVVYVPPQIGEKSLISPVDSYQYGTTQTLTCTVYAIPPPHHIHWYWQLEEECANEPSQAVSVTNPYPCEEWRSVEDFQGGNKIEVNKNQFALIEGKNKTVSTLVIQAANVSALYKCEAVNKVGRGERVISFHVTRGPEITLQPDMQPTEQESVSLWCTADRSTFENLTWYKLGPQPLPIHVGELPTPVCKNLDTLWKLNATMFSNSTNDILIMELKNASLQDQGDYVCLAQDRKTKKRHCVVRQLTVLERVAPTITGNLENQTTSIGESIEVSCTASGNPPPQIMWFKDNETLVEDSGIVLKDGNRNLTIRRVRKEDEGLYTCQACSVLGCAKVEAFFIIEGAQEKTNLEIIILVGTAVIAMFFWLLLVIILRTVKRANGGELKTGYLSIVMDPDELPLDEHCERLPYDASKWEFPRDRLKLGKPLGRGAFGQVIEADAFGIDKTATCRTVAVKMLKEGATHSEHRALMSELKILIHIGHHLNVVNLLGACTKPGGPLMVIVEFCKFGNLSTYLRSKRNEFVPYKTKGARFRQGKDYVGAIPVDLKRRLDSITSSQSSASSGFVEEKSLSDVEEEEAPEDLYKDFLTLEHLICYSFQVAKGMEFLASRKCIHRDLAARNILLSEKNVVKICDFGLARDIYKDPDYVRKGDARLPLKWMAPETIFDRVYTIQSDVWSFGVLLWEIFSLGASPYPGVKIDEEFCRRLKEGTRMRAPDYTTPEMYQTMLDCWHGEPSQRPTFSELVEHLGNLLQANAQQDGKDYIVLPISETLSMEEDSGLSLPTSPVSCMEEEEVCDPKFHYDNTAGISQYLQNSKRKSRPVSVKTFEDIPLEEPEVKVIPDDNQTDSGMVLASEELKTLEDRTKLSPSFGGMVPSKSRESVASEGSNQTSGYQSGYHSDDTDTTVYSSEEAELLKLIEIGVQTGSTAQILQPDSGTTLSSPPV
pIC50: −log10 of the molar value.

{"compound": "CC(C)C[C@H]1C(=O)N(Cc2ccc(C(F)(F)F)cc2)c2ccccc2C(=O)N1Cc1ccc(C(F)(F)F)cc1 [Compound 31]", "pIC50": "≤ 4.52"}

Name the recorded pIC50 of CC(C)C[C@@H](C(=O)OCc1ccccc1)N1Cc2ccccc2NC1=O [Compound 63] , assay system Vascular Endothelial Growth Factor Receptor (VEGFR-2)/KDR (Homo sapiens, UniProt P35968).
≤ 4.52

The measured values listed here are drawn from paper PMC12362587.
